Experiment: qHTS of small molecules that selectively kill Giardia lamblia: Hit Validation. Also: potency is read from the fitted curve at half-maximal effect.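 Also: viability measured as ATP content by luminescence so killing lowers signal; trophozoites exposed to compounds for 48 h anaerobically at 37 °C; nearly all actives have a fitted effect of over 65% in size.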
Conditions: Giardia lamblia trophozoite viability, dose-response; series mostly up to 38.3 µM
The campaign covered roughly 1,300 compounds. About 1,000 (77%) were called active. Roughly 7% stayed inconclusive and do not appear here. So high a share suggests a set chosen from earlier hits. This is one part of the list.
Please go through the items and note down their Potency.

Test smiles | Potency
Cc1ccc(OCC(=O)c2cc(C)n(C)c2C)c([N+](=O)[O-])n1 | 1450 nM (active)
C=CCn1c(C)cc(C(=O)COc2ccc(C)nc2[N+](=O)[O-])c1C | 460 nM (active)
COCCn1c(C)cc(C(=O)COc2cccnc2[N+](=O)[O-])c1C | 1300 nM (active)
Cc1ccc(OCc2ccc([N+](=O)[O-])cc2)c([N+](=O)[O-])n1 | 3260 nM (active)

# ---- query compound ----
Cc1ccc(CN=c2c([N+](=O)[O-])nn(-c3cccc(Cl)c3)n2O)cc1 has a reported Potency of 18300 nM (active)

* * *

Assay: qHTS of small molecules that selectively kill Giardia lamblia: Hit Validation.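 Also: viability measured as ATP content by luminescence so killing lowers signal; trophozoites exposed to compounds for 48 h anaerobically at 37 °C; nearly all actives have a fitted effect of over 65% in size.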
Conditions: Giardia lamblia trophozoite viability, dose-response; series mostly up to 38.3 µM
The campaign covered roughly 1,300 compounds. About 1,000 (77%) were called active. Roughly 7% stayed inconclusive and do not appear here. The call rests on the fitted dose curve; in most records, active means well fitted inhibition curve with a large enough effect; inconclusive means small, poorly fitted or top-dose-only effect; inactive means no such curve, though single readings can be large or run the other way. The set was probably picked from earlier hits. This is one part of the list.
Give one outcome, nothing more. List: true (1) = active, false (0) = inactive

Compound | Group
Cc1ccc(C(C(=O)NCc2ccco2)N(C(=O)CNC(=O)c2cccs2)c2c(C)cccc2C)cc1 (centres undefined) | true (1)
Cc1ccc(S(=O)(=O)CC(=O)Nc2ccc(F)c(F)c2F)cc1 | false (0)
O=C(COc1ccc(Cl)cc1)Nc1ncc([N+](=O)[O-])s1 | true (1)
Cc1onc(-c2ccccc2)c1NC(=O)N(Cc1ccccc1)C(C)C | false (0)
O=C(NCCCO)c1cc([N+](=O)[O-])cc2c1C=Cc1ccccc1O2 | true (1)
O=[N+]([O-])c1nn(-c2ccc3c(c2)OCCO3)n(O)c1=NCc1ccccc1Cl | true (1)

How did this test come out for O=C(Cc1c(F)cccc1Cl)Nc1ncc([N+](=O)[O-])s1 ?
true (1)

Hi, do you know how Cn1c(CNC(=O)c2ccccc2F)cc2ccccc21 came out in this test?
false (0)

What classification did CCCSc1nc2c(c(=O)n1CC)SC(C)C2 (centres undefined) end up with in this test?
false (0)

Which outcome was entered for the compound O=C(Cc1ccccc1)N/N=C/c1ccc([N+](=O)[O-])s1 in this test?
true (1)

For Cc1ccc(OCC(=O)N(Cc2cccc(Cl)c2)C2CCS(=O)(=O)C2)cc1C (centres undefined) , what call appears in the results of this test?
false (0)

Kindly provide the recorded test outcome for the following compound: COc1ccc(-c2cn3ccsc3n2)cc1
true (1)

Please share the test call associated with CC(=O)Nc1ccc(S(=O)(=O)N(CCc2ccccc2)CC(=O)N/N=C/c2ccc(C(=O)O)cc2)cc1 .
false (0)

Answer briefly: the call reported for O=C(Cc1cccs1)N/N=C\c1ccc([N+](=O)[O-])s1 in this assay.
true (1)

* * *

Test: qHTS of small molecules that selectively kill Giardia lamblia: Hit Validation.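 Also: viability measured as ATP content by luminescence so killing lowers signal; trophozoites exposed to compounds for 48 h anaerobically at 37 °C; nearly all actives have a fitted effect of over 65% in size.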
Settings: Giardia lamblia trophozoite viability, dose-response; series mostly up to 38.3 µM
Experimental: Giardia lamblia is a human pathogen afflicting impoverished nations, and the most common cause of outbreaks of diarrhea in the United States. Giardia has been classified by the CDC as a category B bioterrorism organism. The favored anti giardiasis drugs in the US are metronidazole or tinidazole, compounds that have undesirable side effects. […] 5. Dispense 4 ul/well ATPLite 1-Step Luminescence assay kit […] 7. Read luminescence signal on ViewLux plate reader
In all, about 1,300 compounds went through this assay and about 1,000 (77%) were called active. Another 7% or so got no clear call; they are omitted. Calls come from the whole dose curve; as a rule, active = well fitted inhibition curve with a large enough effect; inconclusive = small, poorly fitted or top-dose-only effect; inactive = no such curve, though single readings can be large or run the other way. So high a share suggests a set chosen from earlier hits. This is one part of the list.
# output must be one of t for active, f for inactive

// known answers, use as guide
Compound | Group
CC(NC(=O)c1ccc([N+](=O)[O-])o1)C12CC3CC(CC(C3)C1)C2 (configuration not stated) | t
Cc1cc2ncn(/N=C/c3ccc([N+](=O)[O-])s3)c2cc1C | t
Cc1[nH]n(S(=O)(=O)c2ccccc2)c(=O)c1N=Nc1cccc(Cl)c1 | t
CC1CCCN(C(=O)c2ccc([N+](=O)[O-])o2)C1 (configuration not stated) | t
O=C(N/N=C/c1ccc([N+](=O)[O-])o1)c1cn(-c2ccccc2)nc1-c1ccc(F)cc1 | t

Given N/C(=N\N=Cc1ccc2c(c1)OCO2)NN=Cc1ccc2c(c1)OCO2 , state the outcome it received in this test.
t

Which outcome did this test record for the compound Nc1nonc1OCCN1CCN(c2ccc([N+](=O)[O-])c3cccnc23)CC1 ?
t
